- MEASURED_ON: T1, murine CD22 protein (ACROBiosystems, SI2-M52Ha) (murine, UniProt P35329 22-708)
- T1 construct: extracellular domain; also called murine CD22-ECD; murine CD22-ECD-His
- T1 sequence (looked up): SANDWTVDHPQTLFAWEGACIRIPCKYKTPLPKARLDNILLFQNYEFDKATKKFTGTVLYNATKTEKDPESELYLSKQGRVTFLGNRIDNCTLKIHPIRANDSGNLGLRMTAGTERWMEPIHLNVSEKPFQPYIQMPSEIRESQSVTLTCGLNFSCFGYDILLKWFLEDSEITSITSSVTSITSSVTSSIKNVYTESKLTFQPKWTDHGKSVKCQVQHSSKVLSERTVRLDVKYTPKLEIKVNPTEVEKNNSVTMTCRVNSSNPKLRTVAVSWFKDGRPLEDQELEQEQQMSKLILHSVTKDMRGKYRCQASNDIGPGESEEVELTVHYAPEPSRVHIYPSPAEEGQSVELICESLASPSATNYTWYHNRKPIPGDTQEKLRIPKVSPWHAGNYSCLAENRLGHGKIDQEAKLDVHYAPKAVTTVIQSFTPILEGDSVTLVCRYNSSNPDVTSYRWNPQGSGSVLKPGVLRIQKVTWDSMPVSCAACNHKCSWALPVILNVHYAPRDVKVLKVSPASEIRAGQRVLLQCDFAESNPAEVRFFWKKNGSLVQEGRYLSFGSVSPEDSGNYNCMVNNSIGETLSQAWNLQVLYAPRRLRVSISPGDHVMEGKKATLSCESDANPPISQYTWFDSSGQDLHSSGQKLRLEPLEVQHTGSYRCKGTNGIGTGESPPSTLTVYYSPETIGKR
- MEASUREMENT_DESCRIPTION: ELISA, coated murine CD22, 0.001 nM Ab
MEASUREMENT_KIND: OD450 (OD450)

binder="F2.127.11 human-murine chimeric antibody (antibody, human IgG1, lambda, V domains shown, Chimeric, human IgG1 / lambda; VL tied by name) VH: QVTLKESGPGILQPSQTLSLTCSFSGFSLSTFGMGVGWIRQPSGKGLEWLAHIWWDDDKHYNPALKSRLTISKDTSRNQVFLKIANVDTADGATYFCARDNWVSSLDYWGQGTSVIVSS VL: QPVITQSSSASFSLGASAELTCTLSSQHSTYTIEWYQQQPLKPPKYVMGLKKDGSHSTGDGIPDRFSGSSSGADRYLSISNIQPEDEAIYICGVSDTIKEQFVYVFGGGTKVTVLG" result_value=0.05
binder="F2.104.10 human-murine chimeric antibody (antibody, human IgG1, lambda, V domains shown, Chimeric, human IgG1 / lambda) VH: EVQLVESGGGFVKPGGSLKLSCAASGFTFSDYGMNWFRQAPEKGLEWVAYISRGSHTIYYADTVKGRFTISRDNAENTLFLQMTSLRSNDTAMYYCVRMAGYYAMDYWGQGTSLTVSS VL: QLVLTQSSSASFSLGASAKLTCTLSSQHSSYIIEWYQQQPLKPPKYVMEVKKDGSHSTGDGIPDRFSGSSSGADRYLSISNIQSEDEAIYICGVGDTIKEQFVYVFGGGTKVTVLG" result_value=0.06
binder="F1.17.1 human-murine chimeric antibody (antibody, human IgG1, kappa, V domains shown, Chimeric, human IgG1 / kappa) VH: QVQLKESGPGLVAPSQSLSITCTVSGFSLSRYTVHWVRQPPGKGLEWLGMIWGGGSTDYNSALKSRLSISKDNSKSQVFLKMNSLQTDDTAMYYCARPHDFDAGGFAYWGQGTLVTVSA VL: QIVLTQSPAILSTSPGEKVTMTCSASSRVNYMYWYQQKPGSSPRLLIYDTSNLASGVPVRFSGSGSGTSYSLTISRMEAEDAATYYCQQWTSYPLTFGAGTKLELKR" result_value=0.05
binder="HA22-hIgG1 (antibody, V domains shown) VH: EVQLVESGGGLVKPGGSLKLSCAASGFAFSIYDMSWVRQTPEKCLEWVAYISSGGGTTYYPDTVKGRFTISRDNAKNTLYLQMSSLKSEDTAMYYCARHSGYGTHWGVLFAYWGQGTLVTVSA VL: DIQMTQTTSSLSASLGDRVTISCRASQDISNYLNWYQQKPDGTVKLLIYYTSILHSGVPSRFSGSGSGTDYSLTISNLEQEDFATYFCQQGNTLPWTFGCGTKLEIKR" result_value=0.05
binder="F2.70.2 human-murine chimeric antibody (antibody, human IgG1, lambda, V domains shown, Chimeric, human IgG1 / lambda) VH: EVQLVESGGGLVKPGGSLKLSCAASGFTFSDYGMNWFRQAPEKGLEWVAYISRGSHTIYYADTVKGRFTISRDNAKNTLFLQMTSLRSNDTAMYYCVRMAGYYAMDYWGQGTSVTVSS VL: QLVLTQSSSASFSLGASAKLTCTLSSQHSSYIIEWYQQQPLKPPKYVMELKKDGSHSTGDGIPDRFSGSSSGADRYLSISNIQPEDEAIYICGVGDTIKEQFVYVFGGGTKVTVLG" result_value=0.06
